- Subject of test: T1, human CD27 (human, UniProt P26842 21-192, limits assumed)
- T1 construct: The construct (soluble form, tags) is not described; also called TNFRSF7
- Protocol: screen of individual clones, heat map of log (Binding MFI), human CD27 at 25 nM

| Binder | binding result |
| --- | --- |
| TP15 (antibody, V domains shown, Clone of the screen) VH: QVQLVQSGAEVKKPGASVKVSCKASGYTFTSYGISWVRQAPGQGLEWMGWISAYNGNTNYAQKLQGRVTMTTDESTSTAYMELSSLRSEDTAVYYCARGGAGHYDYFDYWGQGTLVTVSS VL: QSVLTQPPSVSAAPGQKVTISCSGSSSNIGNNYVSWYQQLPGTAPKLLIYDNNKRPSGIPDRFSGSNSGNTATLTISGTQAMDEADYYCQAWDSSTAWVFGGGTKLTVL | binds |
| TP14 (antibody, V domains shown, Clone of the screen) VH: QVQLVQSGAEVKKPGASVKVSCKASGYTFTSYYMHWVRQAPGQGLEWMGIINPSGGSTSYAQKFQGRVTMTRDTSTSTVYMELSSLRSEDTAVYYCARYDHAGGTPFDLWGQGTLVTVSS VL: QSVLTQPPSVSAAPGQKVTISCSGSSSNIGNNYVSWYQQLPGTAPKLLIYGNSNRPSGVPDRFSGSKSGTSASLAITGLQAEDEADYYCQSYDSSLSGYVFGTGTKVTVL | binds |
| TP5 (antibody, V domains shown, Clone of the screen; also called TP05) VH: QVQLVESGGGVVQPGRSLRLSCAASGFTFSSYAMHWVRQAPGKGLEWVAVISYDGSNKYYADSVKGRFTISRDNSKNTLYLQMNSLRAEDTAVYYCARVFYGYAPFDVWGQGTLVTVSS VL: DIQMTQSPSTLSASVGDRVTITCRASQSISSWLAWYQQKPGKAPKLLIYDASSLESGVPSRFSGSGSGTEFTLTISSLQPDDFATYYCQQSYSTPYTFGQGTKLEIK | binds |
| TP24 (antibody, V domains shown, Clone of the screen) VH: QVQLVESGGGVVQPGRSLRLSCAASGFTFSSYAMHWVRQAPGKGLEWVAVISYDGSNKYYADSVKGRFTISRDNSKNTLYLQMNSLRAEDTAVYYCARPVRTISAFDVWGQGTLVTVSS VL: QSVVTQPPSVSGAPGQRVTISCTGSSSNIGAGYDVHWYQQLPGTAPKLLIYGNSNRPSGVPDRFSGSKSGTSASLAITGLQAEDEADYYCGTWDSSLSAGYVFGTGTKVTVL | binds |

Where these numbers come from: patent US20220144961A1
